Test system: Calf thymus DNA
assayNotes: Binding affinity to calf thymus DNA assessed as hypochromic effect up to 10 uM by UV-vis absorption spectral analysis
Assay type: nucleic-acid assay
runConditions: Bos taurus
assayMetric: Activity (%)
One number for each entry, in %.

# molecularString, Activity [%]
rows = [
    ("N#CC1=CC2(c3ccccc3Nc3ccccc32)N(/N=C/c2ccc(Cl)cc2)C1=O", 44.3),
    ("N#CC1=CC2(c3ccccc3Nc3ccccc32)N(/N=C/c2ccccc2[N+](=O)[O-])C1=O", 8.06),
    ("N#CC1=CC2(c3ccccc3Nc3ccccc32)N(/N=C/c2ccc([N+](=O)[O-])cc2)C1=O", 13.5),
    ("CN(C)c1ccc(/C=N/N2C(=O)C(C#N)=CC23c2ccccc2Nc2ccccc23)cc1", 7.14),
]

// batch mode: one Activity value per listed entry
1. CCOc1cc(/C=N/N2C(=O)C(C#N)=CC23c2ccccc2Nc2ccccc23)ccc1O
2. COc1ccc(Br)cc1/C=N/N1C(=O)C(C#N)=CC12c1ccccc1Nc1ccccc12
3. N#CC1=CC2(c3ccccc3Nc3ccccc32)N(/N=C/c2c(Cl)cccc2Cl)C1=O

Ans:
1: 14.4; 2: 100; 3: 30

###

System: Calf thymus DNA
assayNotes: Binding affinity to calf thymus DNA by UV-vis absorption spectral analysis
Type: nucleic-acid assay
runConditions: Bos taurus
Provide the recorded Kb for the entries that follow.
Give bare numbers, in ×10⁵ /M.

Study these solved cases before continuing.
# molecularString, uom, Kb
records = [
    ("CCOc1cc(/C=N/N2C(=O)C(C#N)=CC23c2ccccc2Nc2ccccc23)ccc1O", "×10⁵ /M", 2.6),
    ("N#CC1=CC2(c3ccccc3Nc3ccccc32)N(/N=C/c2ccccc2[N+](=O)[O-])C1=O", "×10⁵ /M", 3.7),
    ("COc1ccc(Br)cc1/C=N/N1C(=O)C(C#N)=CC12c1ccccc1Nc1ccccc12", "×10⁵ /M", 6.7),
    ("N#CC1=CC2(c3ccccc3Nc3ccccc32)N(/N=C/c2ccc(Cl)cc2)C1=O", "×10⁵ /M", 7.6),
    ("N#CC1=CC2(c3ccccc3Nc3ccccc32)N(/N=C/c2ccc(Cl)cc2Cl)C1=O", "×10⁵ /M", 8.2),
    ("N#CC1=CC2(c3ccccc3Nc3ccccc32)N(/N=C/c2ccc(F)cc2)C1=O", "×10⁵ /M", 1.5),
]

Alright, here's another compound for you.
Q: Find Kb (Calf thymus DNA) for the entry N#CC1=CC2(c3ccccc3Nc3ccccc32)N(/N=C/c2c(Cl)cccc2Cl)C1=O
Ans: 1.6

###

tgt: Albumin (Bos taurus)
Sequence (P02769 whole entry): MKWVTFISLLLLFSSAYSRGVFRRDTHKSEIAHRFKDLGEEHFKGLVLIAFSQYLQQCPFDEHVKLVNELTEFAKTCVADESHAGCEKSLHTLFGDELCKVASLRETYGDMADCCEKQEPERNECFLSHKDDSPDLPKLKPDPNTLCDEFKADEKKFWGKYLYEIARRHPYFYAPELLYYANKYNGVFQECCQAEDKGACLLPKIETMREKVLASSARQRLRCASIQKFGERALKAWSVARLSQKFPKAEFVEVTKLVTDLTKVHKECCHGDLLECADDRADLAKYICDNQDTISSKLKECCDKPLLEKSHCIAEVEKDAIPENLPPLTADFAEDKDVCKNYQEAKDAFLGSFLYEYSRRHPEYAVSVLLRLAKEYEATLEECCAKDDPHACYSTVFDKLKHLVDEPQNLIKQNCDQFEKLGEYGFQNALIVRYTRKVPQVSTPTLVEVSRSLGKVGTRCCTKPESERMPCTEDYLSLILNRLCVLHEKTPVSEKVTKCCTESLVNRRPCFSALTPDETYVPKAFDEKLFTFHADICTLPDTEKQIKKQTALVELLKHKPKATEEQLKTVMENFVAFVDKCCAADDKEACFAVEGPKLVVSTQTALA
assayNotes: Binding affinity to bovine serum albumin assessed as Stern-Volmer quenching constant by fluorescence spectroscopic analysis
Type: ADME
runConditions: cattle, isolated protein
assayMetric: KSV (×10⁴ /M)
Answers are plain numbers, in ×10⁴ /M.

A selection of reference data follows.
# molecularString, uom, KSV
data = [
    ("CCOc1cc(/C=N/N2C(=O)C(C#N)=CC23c2ccccc2Nc2ccccc23)ccc1O", "×10⁴ /M", 2.3),
    ("N#CC1=CC2(c3ccccc3Nc3ccccc32)N(/N=C/c2c(Cl)cccc2Cl)C1=O", "×10⁴ /M", 2.1),
    ("N#CC1=CC2(c3ccccc3Nc3ccccc32)N(/N=C/c2ccc(Cl)cc2Cl)C1=O", "×10⁴ /M", 2),
    ("N#CC1=CC2(c3ccccc3Nc3ccccc32)N(/N=C/c2ccc(Cl)cc2)C1=O", "×10⁴ /M", 3.4),
    ("CN(C)c1ccc(/C=N/N2C(=O)C(C#N)=CC23c2ccccc2Nc2ccccc23)cc1", "×10⁴ /M", 2.7),
]

Respectfully, I request KSV for each entry included below.
1. N#CC1=CC2(c3ccccc3Nc3ccccc32)N(/N=C/c2ccc([N+](=O)[O-])cc2)C1=O
2. N#CC1=CC2(c3ccccc3Nc3ccccc32)N(/N=C/c2ccccc2[N+](=O)[O-])C1=O
3. N#CC1=CC2(c3ccccc3Nc3ccccc32)N(/N=C/c2ccc(F)cc2)C1=O

Ans:
3.1
2.3
2.3

Q: Would you kindly share the measured KSV for COc1ccc(Br)cc1/C=N/N1C(=O)C(C#N)=CC12c1ccccc1Nc1ccccc12 ?
Ans: 1.9
